A collection of compounds and their measured IC50
Experiment: Inhibition of IL-6 production in LPS-induced mouse RAW264.7 cells pretreated for 1 hr followed by LPS stimulation and measured after 24 hrs by ELISA
Format: functional, cell-based
Please don't drop the unit; write it after the number.

The compound identified as COc1ccc2[nH]c(=O)oc2c1 [COIXOL] registered its IC50 at 48.9 µM

The compound identified as Cc1ccc(-c2cc(C(F)(F)F)nn2-c2ccc(S(N)(=O)=O)cc2)cc1 [CELECOXIB] registered its IC50 at 13.7 µM

The compound identified as `COc1ccc2c(c1)oc(=O)n2CCNC(=O)/C=C/c1ccc([N+](=O)[O-])o1` registered its IC50 at 10.3 µM

The compound identified as `COc1ccc2c(c1)oc(=O)n2CCNC(=O)/C=C/c1ccco1` registered its IC50 at 8.8 µM

---

Test: Cytotoxicity against mouse RAW264.7 cells incubated for 24 hrs by MTT assay
Assay type: toxicity, cell-based
A collection of compounds and their measured IC50 at 24 h

# smilesData, valueObserved
data = [
    ("COc1ccc2c(c1)oc(=O)n2CCNC(=O)/C=C/c1ccccn1", "> 100 µM"),
    ("COc1ccc2c(c1)oc(=O)n2CCNC(=O)/C=C/c1ccc(C)cc1", "> 100 µM"),
    ("COc1ccc2c(c1)oc(=O)n2CCNC(=O)/C=C/c1cc(OC)c(OC)c(OC)c1", "> 100 µM"),
    ("O=C(/C=C/c1ccco1)NCCn1c(=O)oc2cc(Br)ccc21", "68.9 µM"),
    ("COc1ccc2c(c1)oc(=O)n2CCNC(=O)c1ccco1", "> 100 µM"),
    ("COc1ccc2c(c1)oc(=O)n2CCNC(=O)/C=C/c1ccc(OC)c(OC)c1", "> 100 µM"),
    ("COc1ccc2c(c1)oc(=O)n2CCNC(=O)/C=C/c1cccs1", "> 100 µM"),
    ("COc1ccc2c(c1)oc(=O)n2CCNC(=O)/C=C/c1ccccc1", "> 100 µM"),
]

The compound identified as `COc1ccc(/C=C/C(=O)NCCn2c(=O)oc3cc(OC)ccc32)cc1` registered its IC50 at 24 h at 68.8 µM

The compound identified as `COc1ccc2c(c1)oc(=O)n2CCNC(=O)/C=C/c1cc2ccccc2o1` registered its IC50 at 24 h at > 100 µM

The compound identified as `COc1ccc2c(c1)oc(=O)n2CCNC(=O)/C=C/c1ccc([N+](=O)[O-])o1` registered its IC50 at 24 h at 38.8 µM

---

Assay: Cytotoxicity against mouse RAW264.7 cells incubated for 24 hrs by MTT assay
Assay type: toxicity, cell-based
A collection of compounds and their measured IC50 at 24 h

# compound, IC50 at 24 h
measured = [
    ("COc1cccc(/C=C/C(=O)NCCn2c(=O)oc3cc(OC)ccc32)c1", "> 100 µM"),
    ("COc1ccc2c(c1)oc(=O)n2CCNC(=O)/C=C/c1ccc(O)c(OC)c1", "> 100 µM"),
    ("COc1ccc2c(c1)oc(=O)n2CCNC(=O)/C=C/c1ccc(O)cc1", "59 µM"),
    ("COc1ccc2oc(=O)n(CCNC(=O)/C=C/c3ccco3)c2c1", "> 100 µM"),
    ("COc1ccc2c(c1)oc(=O)n2CCNC(=O)/C=C/c1ccoc1", "> 100 µM"),
    ("COc1ccc2c(c1)oc(=O)n2CCNC(=O)/C=C/c1ccccc1OC", "80.2 µM"),
    ("COc1ccc2c(c1)oc(=O)n2CCNC(=O)/C=C/c1ccc(Cl)cc1", "> 100 µM"),
    ("COc1ccc2[nH]c(=O)oc2c1 [COIXOL]", "> 100 µM"),
    ("COc1ccc2c(c1)oc(=O)n2CCNC(=O)/C=C/c1ccco1", "> 100 µM"),
    ("COc1ccc2c(c1)oc(=O)n2CCNC(=O)/C=C/c1cccc(Cl)c1", "> 100 µM"),
]

The compound identified as `O=C(/C=C/c1ccco1)NCCn1c(=O)oc2ccccc21` registered its IC50 at 24 h at > 100 µM
